target: SHP2 protein (Homo sapiens); experiment: Degradation activity on SHP2 protein in MV-411 cells (Western blot, DC50); type: cell-based; set-up: endogenous in cells; settings: MV411 cells, 24 hours, read-out: Degradation activity for differenct cell lines MV411 (DC50)
Sequence (Q06124 whole entry): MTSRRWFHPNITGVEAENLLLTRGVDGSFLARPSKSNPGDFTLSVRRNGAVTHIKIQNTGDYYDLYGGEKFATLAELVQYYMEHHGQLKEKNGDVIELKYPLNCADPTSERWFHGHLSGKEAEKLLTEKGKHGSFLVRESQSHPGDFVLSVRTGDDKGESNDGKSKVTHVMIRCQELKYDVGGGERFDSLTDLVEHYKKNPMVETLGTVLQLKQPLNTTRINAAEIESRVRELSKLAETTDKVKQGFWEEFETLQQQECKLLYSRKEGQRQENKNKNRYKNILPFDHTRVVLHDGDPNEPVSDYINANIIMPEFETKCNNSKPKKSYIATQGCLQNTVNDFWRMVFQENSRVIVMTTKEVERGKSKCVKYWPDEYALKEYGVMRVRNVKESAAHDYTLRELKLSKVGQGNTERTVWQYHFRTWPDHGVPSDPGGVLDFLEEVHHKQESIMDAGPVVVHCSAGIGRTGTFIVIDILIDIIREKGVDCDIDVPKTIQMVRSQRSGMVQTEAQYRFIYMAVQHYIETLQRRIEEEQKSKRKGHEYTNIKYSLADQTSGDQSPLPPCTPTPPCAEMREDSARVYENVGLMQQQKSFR
QUANTITY: DC50

| MOLECULE | STUDY SYSTEM | RESULT |
| --- | --- | --- |
| CC1(N)CCN(c2cnc(Sc3cccc(NC(=O)CCCCCCCCCCCCCCC(=O)NCc4ccc5c(c4)CN(C4CCC(=O)NC4=O)C5=O)c3)cn2)CC1 (centres unmarked) [Compound 42] | SHP2 protein (Homo sapiens) | > 1000 nM |
| CCCCCOC(=O)NC1(C)CCN(c2cnc(Sc3cccc(NC(=O)CCCCCCN4CC5(CCN(c6ccc(C(=O)NCc7ccc8c(c7)CN(C7CCC(=O)NC7=O)C8=O)nn6)C5)C4)c3)cn2)CC1 (centres unmarked) [Compound 187] | SHP2 protein (Homo sapiens) | > 1000 nM |
| CC1(N)CCN(c2cnc(Sc3cccc(NC(=O)CCCCCN4CC5(CCN(c6ccc(C(=O)NCc7ccc8c(c7)CN(C7CCC(=O)NC7=O)C8=O)nn6)C5)C4)c3)cn2)CC1 (centres unmarked) [Compound 164] | SHP2 protein (Homo sapiens) | < 100 nM |
| CC1(CN)CCN(c2cnc(Sc3cccc(NC(=O)CCC(=O)N4CCN(CCCCCCCCC(=O)Nc5ccc6c(c5)CN(C5CCC(=O)NC5=O)C6=O)CC4)c3Cl)cn2)CC1 (centres unmarked) [Compound 14] | SHP2 protein (Homo sapiens) | < 100 nM |
| O=C1CCC(N2Cc3cc(CNC(=O)c4ccc(N5CCC6(CN(CCCCCCC(=O)Nc7cccc(Sc8cnc(N9CCC%10(CCNC%10)CC9)cn8)c7)C6)C5)nn4)ccc3C2=O)C(=O)N1 (centres unmarked) [Compound 112] | SHP2 protein (Homo sapiens) | < 100 nM |

* * *

Listed next: entries and their corresponding DC50.
molecular target: UniProt Q06124; experiment: Degradation activity on SHP2 protein in NCI-H358 cells (Western blot, DC50); format: cell-based; design: endogenous in cells; details: read-out: Degradation activity for differenct cell lines NCI-H358 (DC50)
QUANTITY: DC50

| COMPOUND | QUANTITY | RESULT |
| --- | --- | --- |
| CC1(N)CCN(c2cnc(Sc3cccc(NC(=O)CCCCCCN4CC5(CCN(c6ccc(C(=O)NCc7ccc8c(c7)CN(C7CCC(=O)NC7=O)C8=O)nn6)C5)C4)c3)cn2)CC1 (centres unmarked) | DC50 | 0.1 to 1 µM |
| CC1(N)CCN(c2cnc(Sc3cccc(NCc4ccc(CN5CCN(c6ccc(C(=O)NCc7ccc8c(c7)CN(C7CCC(=O)NC7=O)C8=O)nn6)CC5)cc4)c3)cn2)CC1 (centres unmarked) | DC50 | 0.1 to 1 µM |
| CC1(N)CCN(c2cnc(Sc3cccc(NC(=O)c4ccc(N5CCC(N6CCN(c7ccc(C(=O)NCc8ccc9c(c8)CN(C8CCC(=O)NC8=O)C9=O)nc7)CC6)CC5)cc4)c3)cn2)CC1 (centres unmarked) | DC50 | < 0.1 µM |
| CC1CC(c2ccc(C(=O)NCc3ccc4c(c3)CN(C3CCC(=O)NC3=O)C4=O)nn2)=CCN1CCCCCCCCC(=O)Nc1cccc(Sc2cnc(N3CCC(C)(N)CC3)cn2)c1 (centres unmarked) | DC50 | < 0.1 µM |
| Cn1nc(C(=O)NCc2ccc3c(c2)CN(C2CCC(=O)NC2=O)C3=O)cc1C1=CCN(CCCCCCCCC(=O)Nc2cccc(Sc3cnc(N4CCC(C)(N)CC4)cn3)c2)CC1 (centres unmarked) | DC50 | < 0.1 µM |
| Cc1ncsc1-c1ccc([C@H](C)NC(=O)[C@@H]2C[C@@H](O)CN2C(=O)[C@@H](NC(=O)c2cnc(N3CCN(CCCCCC(=O)Nc4cccc(Sc5cnc(N6CCC(C)(N)CC6)cn5)c4)CC3)nc2)C(C)(C)C)cc1 | DC50 | < 0.1 µM |
| CC1(N)CCN(c2cnc(Sc3cccc(NC(=O)CCCCCCCCN4CCN(c5ccc(C(=O)NCc6ccc7c(c6)CN(C6CCC(=O)NC6=O)C7=O)nc5Cl)CC4C(F)(F)F)c3)cn2)CC1 (centres unmarked) | DC50 | < 0.1 µM |
| CC1(N)CCN(c2cnc(Sc3cccc(NC(=O)CCCCCCCCN4C5CCC4CN(c4ccc(C(=O)NCc6ccc7c(c6)CN(C6CCC(=O)NC6=O)C7=O)nn4)C5)c3)cn2)CC1 (centres unmarked) | DC50 | < 0.1 µM |
| COc1cc(C2=CCN(C3CCN(c4ccc(C(=O)Nc5cccc(Sc6cnc(N7CCC(C)(N)CC7)cn6)c5)cc4)CC3)CC2)ccc1C(=O)NCc1ccc2c(c1)CN(C1CCC(=O)NC1=O)C2=O (centres unmarked) | DC50 | < 0.1 µM |
| CC1(N)CCN(c2cnc(Sc3cccc(NC(=O)CCCCCCCCN4C5CCC4CC(c4ccc(C(=O)NCc6ccc7c(c6)CN(C6CCC(=O)NC6=O)C7=O)nn4)C5)c3)cn2)CC1 (single isomer, unassigned) [Compound 234] | DC50 | < 0.1 µM |
| CC1(N)CCN(c2cnc(Sc3cccc(NC(=O)CCCCCCCCN4CCN(c5ccc(C(=O)NCc6ccc7c(c6)CN(C6CCC(=O)NC6=O)C7=O)nn5)C[C@@H]4CO)c3)cn2)CC1 (some centres unmarked) | DC50 | < 0.1 µM |
